The reported measurements were obtained from ChEMBL document CHEMBL4257503.

# STUDY_SYSTEM: Inhibitor of nuclear factor kappa-B kinase subunit beta (Homo sapiens, UniProt O14920)
# Sequence (O14920 whole entry, the tested form may be a part): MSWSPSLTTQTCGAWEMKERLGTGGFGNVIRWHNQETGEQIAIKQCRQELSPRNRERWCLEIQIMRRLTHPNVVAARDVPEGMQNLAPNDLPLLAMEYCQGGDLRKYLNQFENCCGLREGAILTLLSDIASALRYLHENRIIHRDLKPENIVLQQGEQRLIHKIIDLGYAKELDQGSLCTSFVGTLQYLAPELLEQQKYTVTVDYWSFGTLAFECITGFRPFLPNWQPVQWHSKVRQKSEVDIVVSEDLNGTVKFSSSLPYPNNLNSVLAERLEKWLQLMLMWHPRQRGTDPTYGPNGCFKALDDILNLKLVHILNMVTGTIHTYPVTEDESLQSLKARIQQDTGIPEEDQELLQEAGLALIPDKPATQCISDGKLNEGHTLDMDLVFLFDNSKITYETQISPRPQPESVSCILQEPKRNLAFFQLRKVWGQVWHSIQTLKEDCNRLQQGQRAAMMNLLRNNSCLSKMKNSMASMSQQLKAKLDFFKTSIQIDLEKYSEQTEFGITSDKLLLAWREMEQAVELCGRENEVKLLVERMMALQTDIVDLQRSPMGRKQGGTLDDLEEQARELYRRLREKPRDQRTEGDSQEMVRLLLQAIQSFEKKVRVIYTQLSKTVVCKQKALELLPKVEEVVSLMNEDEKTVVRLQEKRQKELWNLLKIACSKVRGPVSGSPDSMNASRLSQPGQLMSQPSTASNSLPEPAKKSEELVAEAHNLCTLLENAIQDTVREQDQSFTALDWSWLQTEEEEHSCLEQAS
# EXPERIMENTAL_PROTOCOL: Inhibition of recombinant human full-length N-terminal GST-fused/His6-tagged IKKbeta (M1 to S756 residues) expressed in Sf9 insect cells using ERLLDDRHDSGLDSMKDEE peptide as substrate measured after 60 mins by ADP-Glo kinase assay
MEASURE: IC50

STRUCTURE_SMILES | MEASURE | RESULT
Cc1[nH]nc(NC(=O)c2ccccn2)c1-c1ccc(Cl)c(Cl)c1 | IC50 | > 100 µM
COCCOc1cnc(N)nc1-c1c[nH]c2ccc(C#CC(C)(C)O)cc12 | IC50 | > 100 µM
Cc1nn(C)c(N)c1-c1ccc(Cl)c(Cl)c1 | IC50 | > 100 µM
CC(=O)n1nc(C)c(-c2ccc(Cl)cc2)c1N | IC50 | > 100 µM

Value wanted: IC50 (Inhibitor of nuclear factor kappa-B kinase subunit beta (Homo sapiens, UniProt O14920)) of entry Cc1[nH]nc(N)c1-c1cccc(OC(F)(F)F)c1
> 100 µM

Value wanted: IC50 (Inhibitor of nuclear factor kappa-B kinase subunit beta (Homo sapiens, UniProt O14920)) of entry Cc1[nH]nc(N)c1-c1cccc(Br)c1
88 µM

Value wanted: IC50 (Inhibitor of nuclear factor kappa-B kinase subunit beta (Homo sapiens, UniProt O14920)) of entry Cc1c(-c2ccc(Cl)c(Cl)c2)c(N)nn1C(=O)C1CCC1
> 100 µM
